Target: cGK I (Bos taurus, UniProt P00516)
Construct: Isolation of cGK I from bovine lung
Sequence (P00516 1-671): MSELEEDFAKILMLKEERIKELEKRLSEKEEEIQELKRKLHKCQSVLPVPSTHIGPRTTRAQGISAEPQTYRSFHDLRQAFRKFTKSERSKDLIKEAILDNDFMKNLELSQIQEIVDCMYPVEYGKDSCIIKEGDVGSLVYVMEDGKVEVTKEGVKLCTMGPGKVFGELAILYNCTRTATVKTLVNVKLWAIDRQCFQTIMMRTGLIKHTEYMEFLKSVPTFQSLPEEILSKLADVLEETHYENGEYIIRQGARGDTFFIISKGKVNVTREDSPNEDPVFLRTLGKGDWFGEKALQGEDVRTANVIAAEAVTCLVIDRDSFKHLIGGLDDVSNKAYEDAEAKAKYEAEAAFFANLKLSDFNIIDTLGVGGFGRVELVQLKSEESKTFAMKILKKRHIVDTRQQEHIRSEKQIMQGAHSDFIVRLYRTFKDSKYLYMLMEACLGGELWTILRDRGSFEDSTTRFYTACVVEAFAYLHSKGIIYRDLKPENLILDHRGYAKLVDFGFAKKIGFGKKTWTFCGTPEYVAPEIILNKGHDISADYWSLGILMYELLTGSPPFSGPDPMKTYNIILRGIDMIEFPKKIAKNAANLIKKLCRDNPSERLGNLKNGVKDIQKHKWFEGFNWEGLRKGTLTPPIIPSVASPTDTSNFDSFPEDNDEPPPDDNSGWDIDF
Assay: Inhibition of isolated cGK I
Conditions: read-out: inhibition constant Ki
pKi: −log10 of the molar value.
measurement-name: pKi

> print(dat)
                                  structure  number
1  Nc1nc2c(nc(Sc3ccc(Cl)cc3)n2[C@@H]2O[C@@H]3CO[P@@](O)(=S)O[C@H]3[C@H]2O)c(=O)[nH]1    6.15
